For each entry below, report its IC50 value.
Test Name: Inhibition of alpha-glucosidase (unknown origin)
Set-up: species or system Homo sapiens
# unit: µM | format: bare number

Task: Query: IC50; subject: CC(=O)N([C@H]1C=C[C@@H](O)[C@@H](O)[C@@H]1O)[C@H]1C=C[C@@H](O)[C@@H](O)[C@@H]1O
Result: 1350

Task: Query: IC50; subject: CC(=O)N([C@H]1[C@H](O)[C@H](O)[C@@H](O)[C@@H](O)[C@@H]1O)[C@H]1[C@H](O)[C@H](O)[C@@H](O)[C@@H](O)[C@@H]1O
Result: 370

Task: Query: IC50; subject: O[C@H]1[C@H](O)[C@@H](N[C@H]2C=C[C@@H](O)[C@@H](O)[C@@H]2O)C=C[C@H]1O
Result: 1400
